# system: T1, Human EphA2 (Ecto) (Human, UniProt P29317 24-537)
# T1 construct: extracellular domain
# T1 sequence (P29317 24-537): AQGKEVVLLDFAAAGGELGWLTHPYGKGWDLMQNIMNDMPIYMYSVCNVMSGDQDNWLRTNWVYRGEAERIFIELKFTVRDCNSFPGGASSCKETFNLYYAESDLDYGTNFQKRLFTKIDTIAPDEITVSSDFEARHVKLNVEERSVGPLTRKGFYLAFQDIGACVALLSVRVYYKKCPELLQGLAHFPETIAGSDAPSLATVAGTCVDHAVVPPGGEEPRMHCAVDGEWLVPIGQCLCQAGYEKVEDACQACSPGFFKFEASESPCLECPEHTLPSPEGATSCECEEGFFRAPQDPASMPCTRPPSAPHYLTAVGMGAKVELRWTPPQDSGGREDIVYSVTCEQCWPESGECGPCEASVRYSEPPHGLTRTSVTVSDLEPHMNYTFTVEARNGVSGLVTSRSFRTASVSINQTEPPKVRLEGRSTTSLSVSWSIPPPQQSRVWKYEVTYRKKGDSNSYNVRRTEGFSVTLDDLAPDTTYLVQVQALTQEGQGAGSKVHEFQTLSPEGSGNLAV
# assay remarks: FP competition; competitor Compound 66
# Method: Peptides without a fluorescent tag were tested in competition with a peptide with a fluorescent tag and a known Kd (Table 2). Peptides were diluted to an appropriate concentration in assay buffer as described in the direct binding assay with a maximum of 5% DMSO, then serially diluted 1 in 2. […] Measurements were conducted as for the direct binding assay, however the gain was determined prior to the first measurement.
Numbered stars: 1 amine (or outer) side, 2 acyl side, 3 side chain; on linkers, the order of the positions; unused ones are H or OH. Bridge positions count the residues as written; N and C are the ends. Ends that are not written are not given here. TBMB = c1c(C[*:1])cc(C[*:3])cc1C[*:2]
measured property: pKi
In textbook form, pKi equals minus log to base ten of the concentration in mol/L.

Note to self: pKi recorded for ACRVSPEYCPFGPVWCA (linker 2-9-16 via TBMB) [Compound 33] was 7.10

In plain terms, ADVTCPWGPFWCPVNRPGCA (linker 5-12-19 via TBMB) [Compound 58] has a documented pKi of 8.58

Please fill in: pKi reported for ACPWGPFWCPVARPGC (printed: Sar2-ACPWGPFWCPVARPGC; TBMB on the 3 Cys) [Compound 101] = 6.58
